# Measurement Target: T1, mouse SPNS2 (mouse, UniProt Q91VM4 1-549)
# T1 construct: on Flp-in 293 cells that also express human SphK1
# T1 sequence: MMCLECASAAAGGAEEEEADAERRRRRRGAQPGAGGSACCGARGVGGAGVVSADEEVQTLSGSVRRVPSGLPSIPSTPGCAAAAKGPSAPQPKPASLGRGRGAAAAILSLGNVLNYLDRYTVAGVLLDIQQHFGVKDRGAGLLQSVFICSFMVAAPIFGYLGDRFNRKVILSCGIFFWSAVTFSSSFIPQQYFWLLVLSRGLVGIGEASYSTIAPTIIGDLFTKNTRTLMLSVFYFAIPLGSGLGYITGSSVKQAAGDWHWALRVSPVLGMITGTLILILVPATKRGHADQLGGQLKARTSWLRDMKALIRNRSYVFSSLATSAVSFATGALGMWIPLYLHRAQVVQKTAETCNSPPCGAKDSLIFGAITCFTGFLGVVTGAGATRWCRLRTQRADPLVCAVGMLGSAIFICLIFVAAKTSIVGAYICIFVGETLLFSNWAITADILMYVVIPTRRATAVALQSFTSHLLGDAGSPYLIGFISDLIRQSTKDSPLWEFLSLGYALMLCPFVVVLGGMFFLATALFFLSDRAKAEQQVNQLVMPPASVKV
# Assay Explanation: Cell ELISA
Readings of pEC50 for the listed binders

Worked cases, pEC50 given:
{"columns": ["Binder", "pEC50"],
 "data": [
  ["50-0704C (antibody, IgG2b, V domains shown) VH: EVQLVGSGGGLVQPGRSMKLSCEASGFTFSNHYMAWVRQAPTKGLEWVATISTGGGNTYYRDSVKGRFTISRDNARSTLSLQMDSLRSEDTATYYCARQDYSNYMGGFAYWGQGTLVTVSS VL: QFVLTQPNSVSTNLGSTVKLSCTRSIGNIGNNYVNWYKQYEGRSPTTMIYRDDERPDGVPDRFSGSIDRSSNSALLTINSVQTEDEADYFCQSFSSGIFIFGGGTKLTVL", "7.75 pEC50 (M)"],
  ["64-0807A (antibody, IgG2b, V domains shown) VH: EVQVVESGGGLVQPGRSMKLSCAALGFTFRDYYMAWVRQTPTKGLEWVAAISTGGGNTYYRDSVKGRFTISRDNAKSTLYLQMDSLRSDDTATYYCARNPYGNYFDYWGQGVMVTVSS VL: QFVLSQPNSVSTNLGSTVKLSCKRSTGNIGSNYVHWYQRHEGRSPTTLIYRDDKRPNGVPDRFSGSIDRSSNSALLTINNVQTEDEADYFCQSYSGGMYLFGGGTKLTVL", "7.83 pEC50 (M)"]
]}

Q: # get_value(readout='pEC50', item= 80-1104A (antibody, IgG2b, V domains shown) VH: EVQLVETGGGLVQPGSSLKLSCSTSGFTFSETWMSWVRQAPGKGLEWVGLIKDKNSNYEANYAESVKGRFTISRDDSKRRVYLQMYTLRDQDTATYYCTSHEDFYYYSSYYFDYWGQGVMVTVSS VL: DIVLTQSPATLSVTPGESVSLSCRASQGISTSIHWYQQKSNESPRLLIKYASQSMSGIPSRFSGSGSGTDFTLRINRVESEDFSVYYCQQSYNLPLTFGSGTKLEIKR )
Result: 8.32 pEC50 (M)
